- system name: D(1A) dopamine receptor (Homo sapiens)
- protocol summary: HTS Assay for Allosteric Agonists of the Human D1 Dopamine Receptor: Primary Screen for Agonists (AID 488981)
- measurement setup: Inducible HEK293 T-REx D1 cells, calcium-flux fluorescence, 180 s kinetic; series mostly up to 41.8 µM
Results filed as inconclusive are left out. Active and inactive are the calls of the source. Calls follow the shape of the dose curve; as a rule, active = well fitted activation curve with a large enough effect; inconclusive = small, poorly fitted or top-dose-only effect; inactive = flat fitted curve, though single readings scatter.
Answer with one of the outcomes yes = active, no = inactive

NCC(CP(=O)(O)O)c1ccc(Cl)cc1 (configuration not stated)    no
Cc1c2ccncc2c(C)c2c1[nH]c1ccccc12    yes
C=CCN1CCc2cccc3c2[C@H]1Cc1ccc(O)c(O)c1-3    yes
CCCN(CCC)CCc1c[nH]c2ccc(C(N)=O)cc12    no
CCS(=O)(=O)Nc1cccc(C(=C2CCCCC2)c2cnc[nH]2)c1    no
CCCN1CCC[C@@H](c2cccc(O)c2)C1    no
C[N+]1(C)CCc2cc3c(cc2[C@H]1[C@@H]1OC(=O)c2c1ccc1c2OCO1)OCO3    no
COc1ccc2[nH]cc(CCN)c2c1    no

Input line: Dear all, I need the recorded test outcome for `C=CCN1C[C@@H](C)N([C@H](c2ccc(C(=O)N(CC)CC)cc2)c2cccc(OC)c2)C[C@@H]1C` , thank you.
Output line: no

Input line: Also, `CCCN(CCC)C1Cc2cc(OC)c(OC)cc2C1` please.
Output line: no

Input line: Also, `COc1ccc2c(c1)c(CCN1CCOCC1)c(C)n2C(=O)c1cccc(Cl)c1Cl` please.
Output line: no

Input line: Also, `NNC(=O)c1ccc(O)cc1` please.
Output line: no

Values compiled from PubChem BioAssay (NCATS).
